Compiled literature IC50, tested on UniProt:P21589.

Examples with answers:
| compound | target-of-assay | result |
| --- | --- | --- |
| O=C(NC1CC2CC2C1)O[C@@H]1CCN(c2cn[nH]c(=O)c2Cl)C1 (stereo partly shown) | UniProt:P21589 | 1 to 10000 nM |
| COC[C@@H](OC[C@H]1O[C@@H](n2ncc3c(NC4CCCC4)nc(Cl)nc32)[C@H](O)[C@@H]1O)P(=O)(O)O | UniProt:P21589 | ≤ 100 nM |
| O=C(NCC1CCOC1)N[C@@H]1CCN(c2cn[nH]c(=O)c2Cl)C1 (stereo partly shown) | UniProt:P21589 | 1 to 10000 nM |
| O=C(Nc1ccc(Cl)cc1)O[C@@H]1CCN(c2cn[nH]c(=O)c2Cl)C1 | UniProt:P21589 | 1 to 10000 nM |

Item `O=C(CP(=O)(O)O)N(CC1CC1)C[C@H]1O[C@@H](n2ncc3c(NC4CCCC4)nc(Cl)nc32)[C@H](O)[C@@H]1O` was tested on UniProt:P21589; the reported IC50 is < 100 nM

Item `COC[C@@](OC[C@H]1O[C@@H](c2ccc3c(NC4CCCC4)nc(Cl)nn23)[C@H](O)[C@@H]1O)(C(=O)O)P(=O)(O)O` was tested on UniProt:P21589; the reported IC50 is ≤ 0.5 nM

Item `CC(C)(C)OC(=O)N[C@H]1CCN(c2cn[nH]c(=O)c2Cl)C1` was tested on UniProt:P21589; the reported IC50 is 10000 to 100000 nM

Item CNc1nc(Cl)nc2c1cnn2[C@@H]1O[C@H](COC(CO)P(=O)(O)O)[C@@H](O)[C@H]1O (stereo partly shown) was tested on UniProt:P21589; the reported IC50 is ≤ 100 nM

Item `CN(C[C@H]1O[C@@H](n2cnc3c(NC4CCCC4)nc(Cl)nc32)[C@@H](F)[C@@H]1O)C(=O)CP(=O)(O)O` was tested on UniProt:P21589; the reported IC50 is > 1000 nM

Item O=P(O)(O)[C@](CO)(Cc1nn[nH]n1)OC[C@H]1O[C@@H](n2ncc3c(NC4CCC4)nc(Cl)nc32)[C@H](O)[C@@H]1O (racemic) was tested on UniProt:P21589; the reported IC50 is ≤ 100 nM

Item `N#C[C@@H]1CCC[C@H]1NC(=O)O[C@@H]1CCN(c2cn[nH]c(=O)c2Cl)C1` was tested on UniProt:P21589; the reported IC50 is 1 to 10000 nM
